Target: Melanocyte-stimulating hormone receptor (Mus musculus, UniProt Q01727)
Sequence (Q01727 whole entry): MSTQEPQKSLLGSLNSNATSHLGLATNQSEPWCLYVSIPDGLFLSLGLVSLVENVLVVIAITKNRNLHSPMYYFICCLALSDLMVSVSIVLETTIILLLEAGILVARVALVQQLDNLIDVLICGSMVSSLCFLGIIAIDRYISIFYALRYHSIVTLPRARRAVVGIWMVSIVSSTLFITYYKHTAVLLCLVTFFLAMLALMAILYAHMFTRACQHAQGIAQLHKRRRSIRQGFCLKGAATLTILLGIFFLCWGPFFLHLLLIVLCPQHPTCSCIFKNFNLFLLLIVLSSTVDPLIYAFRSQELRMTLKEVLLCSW
Assay: Agonist activity at mouse melanocortin receptor 1 expressed in HEK293 cells assessed as increase in cAMP accumulation after 2 hrs by AlphaScreen assay
Non-standard residues stand in square brackets, D forms with d. Residues, ends and D or L forms follow the SMILES beside them.
parameter: EC50

Study these solved cases before continuing.
compound	EC50
N=C(N)NCCC[C@@H]1NC(=O)[C@@H]2CCCN2C(=O)[C@H]2CCCN2C(=O)[C@H](Cc2ccccc2)NC(=O)CNC(=O)[C@H](CC(N)=O)NC(=O)[C@H](Cc2ccccc2)NC(=O)[C@H](Cc2ccccc2)NC1=O (cyclo(RFFNGF[dP]P))	> 100 µM
C[C@@H]1NC(=O)[C@H](Cc2c[nH]cn2)NC(=O)[C@H](Cc2ccccc2)NC(=O)[C@H](Cc2ccccc2)NC(=O)[C@H](CCCNC(=N)N)NC(=O)[C@@H]2CCCN2C(=O)[C@H]2CCCN2C(=O)[C@H](Cc2ccccc2)NC1=O	> 100 µM

INPUT: Give EC50 (Melanocyte-stimulating hormone receptor (Mus musculus, UniProt Q01727)) of the following compound: C[C@@H]1NC(=O)[C@H](CCC(=O)O)NC(=O)[C@H](Cc2ccccc2)NC(=O)[C@H](Cc2ccccc2)NC(=O)[C@H](CCCNC(=N)N)NC(=O)[C@@H]2CCCN2C(=O)[C@H]2CCCN2C(=O)[C@H](Cc2ccccc2)NC1=O
OUTPUT: 20.5 µM

INPUT: Give EC50 (Melanocyte-stimulating hormone receptor (Mus musculus, UniProt Q01727)) of the following compound: CC(C)C[C@@H]1NC(=O)[C@H](Cc2ccccc2)NC(=O)[C@H](Cc2ccccc2)NC(=O)[C@H](CCCNC(=N)N)NC(=O)[C@@H]2CCCN2C(=O)[C@H]2CCCN2C(=O)[C@H](Cc2ccccc2)NC(=O)[C@H](C)NC1=O (cyclo(RFFLAF[dP]P))
OUTPUT: > 100 µM

INPUT: Give EC50 (Melanocyte-stimulating hormone receptor (Mus musculus, UniProt Q01727)) of the following compound: CC[C@@H]1NC(=O)[C@H](Cc2ccccc2)NC(=O)[C@H](Cc2ccccc2)NC(=O)[C@H](CCCNC(=N)N)NC(=O)[C@@H]2CCCN2C(=O)[C@H]2CCCN2C(=O)[C@H](Cc2ccccc2)NC(=O)[C@H](C)NC1=O
OUTPUT: > 100 µM

INPUT: Give EC50 (Melanocyte-stimulating hormone receptor (Mus musculus, UniProt Q01727)) of the following compound: C[C@@H]1NC(=O)[C@H](Cc2ccccc2)NC(=O)[C@H](Cc2ccccc2)NC(=O)[C@H](Cc2ccccc2)NC(=O)[C@H](CCCNC(=N)N)NC(=O)[C@@H]2CCCN2C(=O)[C@H]2CCCN2C(=O)[C@H](Cc2ccccc2)NC1=O
OUTPUT: > 100 µM

INPUT: Give EC50 (Melanocyte-stimulating hormone receptor (Mus musculus, UniProt Q01727)) of the following compound: C[C@@H]1NC(=O)[C@H](C)NC(=O)[C@H](Cc2ccccc2)NC(=O)[C@H](Cc2ccccc2)NC(=O)[C@H](CCCNC(=N)N)NC(=O)[C@@H]2CCCN2C(=O)[C@H]2CCCN2C(=O)[C@H](Cc2ccccc2)NC1=O
OUTPUT: > 100 µM

INPUT: Give EC50 (Melanocyte-stimulating hormone receptor (Mus musculus, UniProt Q01727)) of the following compound: C[C@@H]1NC(=O)[C@@H](CN)NC(=O)[C@H](Cc2ccccc2)NC(=O)[C@H](Cc2ccccc2)NC(=O)[C@H](CCCNC(=N)N)NC(=O)[C@@H]2CCCN2C(=O)[C@H]2CCCN2C(=O)[C@H](Cc2ccccc2)NC1=O
OUTPUT: > 100 µM

INPUT: Give EC50 (Melanocyte-stimulating hormone receptor (Mus musculus, UniProt Q01727)) of the following compound: C[C@@H]1NC(=O)[C@H](CC(N)=O)NC(=O)[C@H](Cc2ccccc2)NC(=O)[C@H](Cc2ccccc2)NC(=O)[C@H](CCCNC(=N)N)NC(=O)[C@@H]2CCCN2C(=O)[C@H]2CCCN2C(=O)[C@H](C)NC1=O (cyclo(RFFNAA[dP]P))
OUTPUT: > 100 µM

INPUT: Give EC50 (Melanocyte-stimulating hormone receptor (Mus musculus, UniProt Q01727)) of the following compound: C[C@@H]1NC(=O)[C@H](CC(=O)O)NC(=O)[C@H](Cc2ccccc2)NC(=O)[C@H](Cc2ccccc2)NC(=O)[C@H](CCCNC(=N)N)NC(=O)[C@@H]2CCCN2C(=O)[C@H]2CCCN2C(=O)[C@H](Cc2ccccc2)NC1=O
OUTPUT: > 100 µM

INPUT: Give EC50 (Melanocyte-stimulating hormone receptor (Mus musculus, UniProt Q01727)) of the following compound: CCCC[C@@H]1NC(=O)[C@H](Cc2ccccc2)NC(=O)[C@H](Cc2ccccc2)NC(=O)[C@H](CCCNC(=N)N)NC(=O)[C@@H]2CCCN2C(=O)[C@H]2CCCN2C(=O)[C@H](Cc2ccccc2)NC(=O)[C@H](C)NC1=O
OUTPUT: > 100 µM

INPUT: Give EC50 (Melanocyte-stimulating hormone receptor (Mus musculus, UniProt Q01727)) of the following compound: N=C(N)NCCC[C@@H]1NC(=O)[C@@H]2CCCN2C(=O)[C@H]2CCCN2C(=O)[C@H](Cc2ccccc2)NC(=O)[C@H](Cc2c[nH]cn2)NC(=O)[C@H](CC(N)=O)NC(=O)[C@H](Cc2ccccc2)NC(=O)[C@H](Cc2ccccc2)NC1=O (cyclo(RFFNHF[dP]P))
OUTPUT: 2.6 µM
